Overview of recorded apparent KD of MS2 coat protein for various sequences
System: MS2 coat protein
Assay: apparent KD of MS2 coat protein, switch OFF state (with FMN for OFF switches, without FMN for ON switches); designed switch direction (-1 OFF switch, 1 ON switch): 1; higher = weaker reporter binding
Conditions: FMN input: 0 or 200 uM; Eterna round: R93 (includes R88 designs)
quantity-measured: apparent KD of MS2 coat protein (nM)

- monomer-sequence: "AAAUAAAGGACUGAGGAUAUACCACAUGAAACAUGAGGAUCACCCAUGUAGAAAUACAAGCGGUGGUAGAAGGCAGUCCACAAAC [Same State 2.5i ( so lets mod hyphema)]"
  unit-of-measurement: "nM"
  experimental-result: 20.4
- monomer-sequence: "UGCCAAUUGGCACAGGAUAUGAGCAUGCUCACAUGAGGAUCACCCAUGUGAUUACCAACGCAAUAUCAGAAGGGUGCCCUCGUCA [Relageor]"
  unit-of-measurement: "nM"
  experimental-result: 50.4
- monomer-sequence: "AGAAAUAAAAGGGAGGAUAUUCAAAAAGGGACAUGAGGAUCACCCAUGUAAAAGAAAAUAAAAUGGGAGAAGGCUCAAAAUAAAG [80%, More Helter Skelter 2]"
  unit-of-measurement: "nM"
  experimental-result: 748
- monomer-sequence: "GAAAAACAUGAGGAUCACCCAUGUAGAAAUAUGGGAGGAUAUACAAAGACGAAAGUCAAAGUAGAAGGCUCAAAAG [Starry Same State 1.2 (mat747 round 1 mod)]"
  unit-of-measurement: "nM"
  experimental-result: 164
- monomer-sequence: "GGGAGACAUGAGGAUCACCCAUGUGAGAAGAGGCGAGGAUAUCGAAAGAAAGAAGAGAAACGAGAAGGCGCGAGGC [salish99-SS1-063]"
  unit-of-measurement: "nM"
  experimental-result: 53.6
- monomer-sequence: "UGCAGGAAGAGAGAGGAUAUCCAAAGGAAAACAUGAGGAUCACCCAUGUAAAAGGUAGGAAAUUGGGAGAAGGCUCAAGAGAGAG [salish99-ss2-098]"
  unit-of-measurement: "nM"
  experimental-result: 28.3
- monomer-sequence: "AGAAAACAUGAGGAUCACCCAUGUAGAAAUAUGGGAGGAUAUACAAAGACGAAAGUCAAAGUAGAAGGCCUGAAGA [Mat - Same State 1 - JL mod - D92]"
  unit-of-measurement: "nM"
  experimental-result: 75
- monomer-sequence: "AAAUUACAUGAGGAUCACCCAUGUAACGACGUUACAGGAUAUGUGGGUGAAAAUAGCAUGACAGAAGGGUACCGUA [SameState1 Malc#38]"
  unit-of-measurement: "nM"
  experimental-result: 28.4
- monomer-sequence: "AACAAUCUAUCUGAGGAUAUGUGUCGAAAGACAUGAGGAUCACCCAUGUAAAAACAUGAAAAGAUACAGAAGGCAGAUAGAUUGA [SS2: 1156]"
  unit-of-measurement: "nM"
  experimental-result: 29.3
- monomer-sequence: "AAUAAAAAUAGUUAGGAUAUGAGAACUAGGACAUGAGGAUCACCCAUGUAACUAGAACAAGUAAAUCAGAAGGGACAGGGUGAAA [JR_SS002_Sub203]"
  unit-of-measurement: "nM"
  experimental-result: 19
- monomer-sequence: "GGAGCCGGCACUGAGGAUAUUCAUAUUAAAACAUGAGGAUCACCCAUGUAGGCCAGAAGGCCUUGGGAGAAGGCAGGUCGGCUCG [Arinin]"
  unit-of-measurement: "nM"
  experimental-result: 363
- monomer-sequence: "GAUAGACAUGAGGAUCACCCAUGUAGAAUUAUGGGAGGAUAUACAAAGACGAGAGUCAGAGUAGAAGGCCUAGGAA [salish99-ss1-156]"
  unit-of-measurement: "nM"
  experimental-result: 64.6
- monomer-sequence: "UAUUAUUACACGAAGGAUAUCGAUAAUAGUACAUGAGGAUCACCCAUGUUCAAAUCAUUUUAGUACGAGAAGGUCGAGGGUAAAG [JR_SS002_Sub710]"
  unit-of-measurement: "nM"
  experimental-result: 23.4
- monomer-sequence: "AAAAGACAUGAGGAUCACCCAUGUAAAAACGUAGGAGGAUAUGUAUGGAAACCAGACUGUACAGAAGGCCUUUGUC [SS1 - 73]"
  unit-of-measurement: "nM"
  experimental-result: 19.4
- monomer-sequence: "UAGGGAACAGGGUAGGAUAUGCAUGGUCGUACAUGAGGAUCACCCAUGUAGCCUAGAAAAUAAAUGCAGAAGGGCCAAAAGAAAA [Raritea]"
  unit-of-measurement: "nM"
  experimental-result: 67.1
- monomer-sequence: "CACAGAGUGGCGUAGGAUAUGUACAUGAGUACAUGAGGAUCACCCAUGUGGGCGUGAAAUUACGAGCAGAAGGGCGUCGCCUGUG [Edradi]"
  unit-of-measurement: "nM"
  experimental-result: 135
- monomer-sequence: "UAAGUACAUGAGGAUCACCCAUGUUGGAAUAGAGCAGGAUAUGUGCAGAGGGAAAUAAAAACAGAAGGGCUAAGAA [Same State #3]"
  unit-of-measurement: "nM"
  experimental-result: 33
- monomer-sequence: "AAAAGACAUGAGGAUCACCCAUGUGAAAACGUACAAGGAUAUGUGUGGAAACCGUACUAUACAGAAGGUGUCUGUC [SS1 - 87]"
  unit-of-measurement: "nM"
  experimental-result: 30.2
- monomer-sequence: "AUAAAACAUGAGGAUCACCCAUGUAGACAUAUGGGAGGAUAUACUAGAUCGAAAGAUCUAGUAGAAGGUCUUAAAA [JL Mod of Eli 10]"
  unit-of-measurement: "nM"
  experimental-result: 183
